# Protocol: Pharmacokinetic measurements in rats (intravenous and intra-tracheal dosing)
# Assay type: in vivo
# Condition Info: male, CD, lung/plasma, iv; rat, i.v. dosing, 1.5 h; read-out: lung/plasma ratio at time(h)
Decide using Kp at 1.5 h: a value greater than or equal to 300 is t, a smaller one is f.

Prompt: Dear colleague, could you confirm whether COC(=O)c1ccc2c(c1)NC(=O)/C2=C(\Nc1ccc(S(=O)(=O)NOCCN(C)C)cc1)c1ccccc1 has Kp at 1.5 h at or above 300?
Response: f

Prompt: Dear colleague, could you confirm whether COC(=O)c1cc2c(cc1C)/C(=C(/Nc1ccc(C(=O)NOCCN(C)C)c(C)c1)c1ccccc1)C(=O)N2 has Kp at 1.5 h at or above 300?
Response: f

Prompt: Dear colleague, could you confirm whether COC(=O)c1cc2c(cc1C)/C(=C(/Nc1ccc(C(=O)NOCCN3CCN(CCO)CC3)cc1)c1ccccc1)C(=O)N2 has Kp at 1.5 h at or above 300?
Response: f

Prompt: Dear colleague, could you confirm whether COC(=O)c1cc2c(cc1C)/C(=C(/Nc1ccc(C(=O)NOCCN3CCN(C)CC3)cc1)c1ccccc1)C(=O)N2 has Kp at 1.5 h at or above 300?
Response: t

Prompt: Dear colleague, could you confirm whether COC(=O)c1ccc2c(c1)NC(=O)/C2=C(\Nc1ccc(C(=O)NOCCN(C)C)cc1)c1ccccc1 has Kp at 1.5 h at or above 300?
Response: t

Prompt: Dear colleague, could you confirm whether COC(=O)c1ccc2c(c1)NC(=O)/C2=C(\Nc1ccc(C(=O)NOCCN2CCN(C)CC2)cc1)c1ccccc1 has Kp at 1.5 h at or above 300?
Response: f
